Every entry's value here was drawn from PubChem BioAssay AID1159580.

Assay: chemical genetic growth profiling, strain panel (AID 1159580);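 further: tested at 20 µM; growth read once vehicle control cultures reached saturation at 30 °C; 1 = growth at the plate median or of vehicle wells; lower values mean less growth of the strain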
Settings: S. cerevisiae deletion strains, growth OD, locus YER155C, strain BEM2 (second series), stronger effect = lower value
Out of some 5,500 compounds screened, about 2,000 (36%) were called active. Inconclusive results (about 18%) are left out. The list shows a part of the results.
Measured normalized growth, listed per entry for reference.
Please reply with the number alone, leaving off any unit.

{"columns": ["COMPOUND", "RECORDED_MEASUREMENT"],
 "data": [
  ["CC(=O)Oc1ccc2c(c1)CCC1C2CC[C@]2(C)C(=O)CCC12 (stereo not given in full)", 0.923],
  ["CC1(C)N([O-])[N+](=O)C1(C)Br (stereo not given)", 0.974],
  ["O=c1[nH]c(=O)n(C2C[C@H](O)[C@@H](CO)O2)cc1C(F)(F)F (stereo not given in full)", 0.957]
]}

Requested read-out: normalized growth. Entry: Cc1cccc(C)c1NC(=O)C1CCCCN1C (stereo not given)
0.982

Requested read-out: normalized growth. Entry: C[C@]12CCC3c4ccc(O)cc4CCC3C1CCC2=O (stereo not given in full)
0.905

---

Assay: chemical genetic growth profiling, strain panel (AID 1159580);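 further: tested at 20 µM; growth read once vehicle control cultures reached saturation at 30 °C; 1 = growth at the plate median or of vehicle wells; lower values mean less growth of the strain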
Details: S. cerevisiae deletion strains, growth OD, locus YNL128W, strain TEP1, stronger effect = lower value
Out of some 5,500 compounds screened, about 2,000 (36%) were called active. Inconclusive results (about 18%) are left out. Some of the results follow.
Measured normalized growth, listed per entry for reference.
Please reply with the number alone, leaving off any unit.

{"columns": ["COMPOUND", "RESULT_TYPE", "RECORDED_MEASUREMENT"],
 "data": [
  ["C[C@]12CCC3c4ccc(OC(=O)CCC(=O)O)cc4CCC3C1CCC2=O (some centres not stated)", "normalized growth", 0.995],
  ["CC(=O)NCCc1c[nH]c2ccc(O)cc12", "normalized growth", 1.01],
  ["Cc1cc(Cl)ccc1Oc1ccc(N)cn1", "normalized growth", 1]
]}

Requested read-out: normalized growth. Entry: COc1ccccc1N1CCN(CCN2C(=O)CC3(CCCC3)CC2=O)CC1
0.988

Requested read-out: normalized growth. Entry: COc1ccc(-c2cc(=O)c3c(OC)cc(OC)cc3o2)cc1
0.981

Requested read-out: normalized growth. Entry: CC(=O)O[C@@H]1CC2C(C)(C)[C@H](O)CC[C@]2(C)C2CC[C@@]3(C)[C@H](c4ccoc4)OC(=O)C4OC43[C@@]21C (some centres not stated)
0.975

Requested read-out: normalized growth. Entry: Cc1onc(-c2ccccc2Cl)c1C(=O)N1CCCN2C(=O)c3ccccc3C21 (configuration not stated)
0.991

Requested read-out: normalized growth. Entry: Cc1cccc(C)c1NC(=O)C1CCCCN1C (configuration not stated)
1.01

Requested read-out: normalized growth. Entry: CC(=O)Oc1ccc2c(c1)CCC1C2CC[C@]2(C)C(=O)CCC12 (some centres not stated)
1.02

Requested read-out: normalized growth. Entry: CC(=O)OCC1=C(C(=O)O)N2C(=O)[C@@H](NC(=O)CCC[C@@H](N)C(=O)O)[C@H]2SC1
0.98

Requested read-out: normalized growth. Entry: C[C@]12CCC3C(CC[C@H]4C[C@H](O)CC[C@]34C)C1CC[C@@H]2C(=O)CO (some centres not stated)
1.02

Requested read-out: normalized growth. Entry: CCCCCCCCCCCCCC(=O)OC1C(C)C2(O)C(C=C(CO)CC3(O)C(=O)C(C)=CC32)C2C(C)(C)C12OC(C)=O (configuration not stated)
1.01

Requested read-out: normalized growth. Entry: CCOC(=O)C(c1ccccc1)C(Nc1ccc(Cl)c(Cl)c1)c1ccccn1 (configuration not stated)
1.03

Requested read-out: normalized growth. Entry: COc1cc2c(CCNC(C)=O)c[nH]c2cc1O
1.02

Requested read-out: normalized growth. Entry: C[C@]12CCC3C(CC[C@H]4C[C@@H](O)CC[C@]34C)C1CC[C@@H]2O (some centres not stated)
1.01

Requested read-out: normalized growth. Entry: CC1[C@H](C)OC(=O)CC(O)CC(O)CC(O)CCC(O)C(O)C[C@]2(O)CC(O)C(C(=O)O)C(CC(OC3O[C@H](C)[C@@H](O)[C@H](N)[C@@H]3O)/C=C/C=C/C=C/C=C/CC/C=C/C=C/[C@H](C)[C@H]1O)O2 (some centres not stated)
0.0617

Requested read-out: normalized growth. Entry: NCCCCCC(=O)O
1

Requested read-out: normalized growth. Entry: COc1cc2nc(N3CCN(C(=O)C4COc5ccccc5O4)CC3)nc(N)c2cc1OC (configuration not stated)
1.01

Requested read-out: normalized growth. Entry: O=C(CN1CCOCC1)Nc1cc(C(F)(F)F)cc(C(F)(F)F)c1
0.993

Requested read-out: normalized growth. Entry: CNc1ccc(C(=O)CC(O)CCC(C)C2OC(=O)CC(O)CC(=O)CC(O)CC(O)CC(O)CC(O)CC3(O)CC(O)C(C(=O)OC)C(CC(OC4OC(C)C(O)C(N)C4O)/C=C/C=C/C=C/C=C/C=C/C=C/C=C/C2C)O3)cc1 (configuration not stated)
0.0601

Requested read-out: normalized growth. Entry: COc1cc(NS(C)(=O)=O)ccc1Nc1c2ccccc2nc2ccccc12
1.02

Requested read-out: normalized growth. Entry: O=C1c2ccccc2C2(c3ccccc3)NCCN12 (configuration not stated)
0.983
